- Read-out: Apolipoprotein A-V (APOA5) gene, APOA5 (gene 116519)
- experiment.description: LTEA_HepaRG_APOA5: Life Technologies and Expression Analysis (LTEA) Assay for Apolipoprotein A-V (APOA5) gene using HepaRG (AID 2283474)
- condition.description: mRNA level, 48 h; actives raise or lower the signal
The source made the active and inactive calls. Rule for the calls: active = hit-call score of the fitted dose curve at least 0.9, where 1 is the maximum; inactive = score below 0.9.
Parameter call: string, one of 1 (yes) for active, 0 (no) for inactive

[
  {
    "entry.smiles": "CCc1cc(C2=C(C(=O)O)N(c3ccccc3C(F)(F)F)S(=O)(=O)c3ccccc32)cc2c1OCO2",
    "discrete.label": "1 (yes)"
  }
]

Hi, sorry to bother you, what did the test record for "O=C1OC(c2ccc(O)cc2)(c2ccc(O)cc2)c2ccccc21" ? 0 (no)

Hi, sorry to bother you, what did the test record for "CO[C@@H]1COCC[C@@H]1N[C@@H]1CC[C@@](C(=O)N2CCc3ncc(C(F)(F)F)cc3C2)(C(C)C)C1" ? 0 (no)

----------
- experiment.description: CEETOX_H295R_11DCORT: CeeTox H295R High-throughput Steroidogenesis Assay for 11-Deoxycortisol (11DCORT) (AID 2283432)
- condition.description: actives raise or lower the signal
Calls of active or inactive are those of the source. Rule for the calls: active = hit-call score of the fitted dose curve at least 0.9, where 1 is the maximum; inactive = score below 0.9.
Parameter call: string, one of 1 (active), -1 (inactive)

Past entries and their recorded results:
[
  {
    "entry.smiles": "CC(=O)[C@@]1(O)CC[C@H]2[C@@H]3CCC4=CC(=O)CC[C@]4(C)[C@H]3CC[C@@]21C",
    "discrete.label": 1
  },
  {
    "entry.smiles": "Nc1nc(Cl)nc2c1ncn2[C@H]1C[C@H](O)[C@@H](CO)O1",
    "discrete.label": -1
  },
  {
    "entry.smiles": "O=C(O)CN(CC(=O)O)CC(=O)O",
    "discrete.label": -1
  }
]

Please examine the following record next.
Hi, sorry to bother you, what did the test record for "O=C1NC(=O)C(c2ccccc2)(c2ccccc2)N1" ? -1

----------
- Read-out: Interferon-gamma inducible Protein 10 (IP10), CXCL10 (gene 3627)
- experiment.description: BSK_KF3CT_IP10: BioMAP Diversity Plus: KF3CT Assay for Interferon-gamma inducible Protein 10 (IP10) Biomarker Activity (AID 2283068)
- condition.description: primary human keratinocytes with fibroblasts; actives raise or lower the signal
The source made the active and inactive calls. How the source made its calls: active means hit-call score of the fitted dose curve at least 0.9, where 1 is the maximum; inactive means score below 0.9.
Parameter call: string, one of T (active), F (inactive)

Past entries and their recorded results:
[
  {
    "molecule": "COC(=O)CCC(=O)OC",
    "discrete.label": "F"
  },
  {
    "molecule": "CN(C)C(=O)NC1(c2ccccc2)CCN(CC[C@@]2(c3ccc(F)c(F)c3)CN(C(=O)c3ccccc3)CCO2)CC1",
    "discrete.label": "F"
  },
  {
    "molecule": "Cc1ccc(-c2cc(C(F)(F)F)nn2-c2ccc(S(N)(=O)=O)cc2)cc1",
    "discrete.label": "F"
  },
  {
    "molecule": "CS(=O)(=O)c1ccc([C@@H](C[C@H]2CCC(=O)C2)C(=O)Nc2cnccn2)cc1Cl",
    "discrete.label": "F"
  }
]

Hi, sorry to bother you, what did the test record for "Cc1occc(=O)c1O" ? F

Hi, sorry to bother you, what did the test record for "C/C=C/C=C/C(=O)O" ? F

Hi, sorry to bother you, what did the test record for "c1ccc2occc2c1" ? F

Hi, sorry to bother you, what did the test record for "OCC(CO)n1cnc(-c2ccc(F)cc2)c1-c1ccnc(Oc2ccccc2)n1" ? F

Hi, sorry to bother you, what did the test record for "CN(C)CCCN1c2ccccc2Sc2ccc(Cl)cc21" ? T

Hi, sorry to bother you, what did the test record for "COC(=O)CCCC(=O)OC" ? F

Hi, sorry to bother you, what did the test record for CC(C)NCC(O)c1ccc(O)c(O)c1 (stereo not drawn) ? F

Hi, sorry to bother you, what did the test record for "Cc1cc(SC2=C(O)C[C@@](CCc3ccc(N)cc3)(C(C)C)OC2=O)c(C(C)(C)C)cc1CO" ? F

Hi, sorry to bother you, what did the test record for "Cc1cn([C@H]2C=C[C@@H](CO)O2)c(=O)[nH]c1=O" ? F

Hi, sorry to bother you, what did the test record for "O=Cc1ccccc1C=O" ? F

Hi, sorry to bother you, what did the test record for CC(COCC(C)OC(=O)c1ccccc1)OC(=O)c1ccccc1 (stereo not drawn) ? F

Hi, sorry to bother you, what did the test record for "S=c1[nH]c2ccccc2s1" ? F

Hi, sorry to bother you, what did the test record for "CCCC[C@H]1CN(CC2CCOCC2)C(=O)OC12CCN(C1(C)CCN(C(=O)c3c(C)ncnc3C)CC1)CC2" ? F

Hi, sorry to bother you, what did the test record for "C=CCc1ccc(OC)c(OC)c1" ? F

Hi, sorry to bother you, what did the test record for "CCN(CC)CCOc1ccc(C(=C(Cl)c2ccccc2)c2ccccc2)cc1" ? T

Hi, sorry to bother you, what did the test record for "CCCCOC(=O)CCCCC(=O)OCCCC" ? F

Hi, sorry to bother you, what did the test record for CCCCC(CC)COP(=O)(OCC(CC)CCCC)OCC(CC)CCCC (stereo not drawn) ? F

Hi, sorry to bother you, what did the test record for CCCCC(CC)COC(=O)CCCCCCCC(=O)OCC(CC)CCCC (stereo not drawn) ? F

Hi, sorry to bother you, what did the test record for "Nc1nc(Cl)nc2c1ncn2[C@H]1C[C@H](O)[C@@H](CO)O1" ? F

----------
- Read-out: growth arrest and DNA damage 45 (GADD45A), GADD45A (gene 1647)
- experiment.description: LTEA_HepaRG_GADD45A: Life Technologies and Expression Analysis (LTEA) Assay for growth arrest and DNA damage 45 (GADD45A) using HepaRG (AID 2283458)
- condition.description: mRNA level, 48 h; actives raise or lower the signal
Active and inactive are the calls of the source. Rule for the calls: active = hit-call score of the fitted dose curve at least 0.9, where 1 is the maximum; inactive = score below 0.9.
Parameter call: string, one of active, inactive

[
  {
    "entry.smiles": "CO[C@@H]1COCC[C@@H]1N[C@@H]1CC[C@@](C(=O)N2CCc3ncc(C(F)(F)F)cc3C2)(C(C)C)C1",
    "discrete.label": "inactive"
  },
  {
    "entry.smiles": "CSc1ccc(Oc2ccc(S(N)(=O)=O)cc2CN(C)C)cc1C",
    "discrete.label": "inactive"
  },
  {
    "entry.smiles": "O=C(O)CC(O)(CC(=O)O)C(=O)O",
    "discrete.label": "inactive"
  },
  {
    "entry.smiles": "CS(=O)(=O)c1ccc([C@@H](C[C@H]2CCC(=O)C2)C(=O)Nc2cnccn2)cc1Cl",
    "discrete.label": "active"
  }
]

Please examine the following record next.
Hi, sorry to bother you, what did the test record for "CCCC[C@H]1CN(CC2CCOCC2)C(=O)OC12CCN(C1(C)CCN(C(=O)c3c(C)ncnc3C)CC1)CC2" ? inactive

----------
- experiment.description: CCTE_Shafer_MEA_dev_bursting_electrodes_number: CCTE's Neural Network Formation Assay for Number of Bursting Electrodes, Shafer Lab (AID 2284043);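 for AC50: potency is for loss of bursting electrodes relative to DMSO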
Records with an inconclusive call do not appear. Active and inactive are the calls of the source. The calls were made as follows: active = hit-call score of the fitted dose curve at least 0.9, where 1 is the maximum; inconclusive = response in the unintended direction; inactive = score below 0.9.
endpoint.label: AC50

// worked examples, AC50 included
[
  {
    "compound": "OCC(O)CO",
    "AC50": "inactive"
  },
  {
    "compound": "O=C1NC(=O)C(c2ccccc2)(c2ccccc2)N1",
    "AC50": "inactive"
  },
  {
    "compound": "CC(=O)CC(c1ccccc1)c1c(O)c2ccccc2oc1=O (stereo not given)",
    "AC50": "2.98 µM (active)"
  },
  {
    "compound": "COC(=O)[C@H]1[C@H]2C[C@@H]3c4[nH]c5cc(OC)ccc5c4CCN3C[C@H]2C[C@@H](OC(=O)c2cc(OC)c(OC)c(OC)c2)[C@@H]1OC",
    "AC50": "3.34 µM (active)"
  }
]

Kindly review the next compound as well.
Which value of AC50 has been reported for "CN(C)CCCN1c2ccccc2Sc2ccc(Cl)cc21" in the records? 4.33 µM (active)

----------
- experiment.description: APR_HepG2_P-H2AX_72hr: Apredica 72-hour HepG2 Assay for H2AX Phosphorylation (AID 2282916);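 note: phospho-histone H2A.x immunostain intensity per cell marking DNA damage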
- condition.description: imaging, actives raise or lower the signal
- Protocol: APR_HepG2_72hr is a cell-based, multiplexed-readout assay that uses HepG2, a human liver cell line, with measurements taken at 72 hours after chemical dosing in a 384-well plate.APR_HepG2_P-H2AX_72hr is one of 10 assay component(s) measured or calculated from the APR_HepG2_72hr assay. […] This assay endpoint, APR_HepG2_P-H2AX_72hr, was analyzed with bidirectional fitting relative to DMSO as the negative control and baseline of activity. […]
The source made the active and inactive calls. How the source made its calls: active means hit-call score of the fitted dose curve at least 0.9, where 1 is the maximum; inactive means score below 0.9.
endpoint.label: outcome

// worked examples, outcome included
[
  {
    "compound": "Oc1ccc(O)cc1",
    "outcome": "inactive"
  },
  {
    "compound": "CC(=O)CC(c1ccccc1)c1c(O)c2ccccc2oc1=O (stereo not given)",
    "outcome": "inactive"
  },
  {
    "compound": "O=NO",
    "outcome": "inactive"
  },
  {
    "compound": "CC(C)OC(=O)C(C)(C)Oc1ccc(C(=O)c2ccc(Cl)cc2)cc1",
    "outcome": "inactive"
  },
  {
    "compound": "CC(C)c1cccc(C(C)C)c1NC(=O)NS(=O)(=O)c1cc(C(C)(C)O)co1",
    "outcome": "inactive"
  }
]

Which value of outcome has been reported for "S=c1[nH]c2ccccc2s1" in the records? inactive

Which value of outcome has been reported for "C=CCc1ccc(OC)c(OC)c1" in the records? inactive

Which value of outcome has been reported for "COC(=O)CCC(=O)OC" in the records? inactive

Which value of outcome has been reported for "OCC(O)CO" in the records? inactive

Which value of outcome has been reported for "Cc1occc(=O)c1O" in the records? inactive

Which value of outcome has been reported for CC(=O)OC1CC(C)OC(C)O1 (stereo not given) in the records? inactive

Which value of outcome has been reported for "CSc1ccc(Oc2ccc(S(N)(=O)=O)cc2CN(C)C)cc1C" in the records? inactive

Which value of outcome has been reported for "O=C1CCCCC1" in the records? inactive

Which value of outcome has been reported for "CN(C)CCCN(C)CCCN(C)C" in the records? inactive

Which value of outcome has been reported for "CCOCCOCCO" in the records? inactive
